# Run Description: Antioxidant activity assessed as DPPH free radical scavenging at 465 uM after 20 mins by UV-Vis spectrophotometric analysis relative to control
# Type: functional
// reported Activity per item
Output spec: scalar in %, unitless text.

Consider the following illustrative entries.
* Cl.O=C(CCCN1CCC(Cc2ccccc2)CC1)c1ccccc1 | 29.3
* COc1ccc(C(=O)CCN2CCC(Cc3ccccc3)CC2)cc1.Cl | 2.8
* Cl.O=C(CCN1CCC(Cc2ccccc2)CC1)c1ccccc1 | 25.9
* COc1ccc(C(=O)CCN2CCCCC2)cc1.Cl | 14.4
* COc1cccc(C(=O)CCCN2CCC(Cc3ccccc3)CC2)c1.Cl | 32

Prompt: Which Activity value is on record for Cl.O=C(CCN1CCCCC1)c1ccc(-c2ccccc2)cc1 ?
Response: 15.5
